This collection of values is drawn from patent US5563125A.

tested on: T. b. brucei procyclic trypanosomes (Lab 110 EATRO strain); assay: In vitro antitrypanosomal activity, procyclic trypanosomes in T2 medium; type: cell-based, Trypanosoma brucei brucei; conditions: Trypanosoma brucei, 3-5 days
pIC50: −log10 of the molar value.
Think of 4 as a floor: if pIC50 stands on it or above, it is True; beneath it, False.

{"COMPOUND": "CCCSC[C@H]1O[C@@H](n2cnc3c(N)ncnc32)[C@H](O)[C@@H]1O [PTA, reference compound]", "QUALITATIVE LABEL": "True"}
{"COMPOUND": "N=C(N)c1ccc(N=NNc2ccc(C(=N)N)cc2)cc1", "QUALITATIVE LABEL": "True"}
{"COMPOUND": "OCCSC[C@H]1OC(O)[C@H](O)[C@@H]1O (stereo partly drawn) [HETR, 5-deoxy-5-(hydroxyethylthio)ribose]", "QUALITATIVE LABEL": "False"}
{"COMPOUND": "Nc1ncnc2c1ncn2[C@@H]1O[C@H](CSCCO)[C@@H](O)[C@H]1O [HETA, 5'-deoxy-5'-(hydroxyethylthio)adenosine]", "QUALITATIVE LABEL": "True"}
{"COMPOUND": "CCSC[C@H]1O[C@@H](n2cnc3c(N)ncnc32)[C@H](O)[C@@H]1O [ETA, reference compound]", "QUALITATIVE LABEL": "False"}

* * *

biological target: Mouse Liver MTA Phosphorylase (Mus musculus); assay: Mouse liver MTA phosphorylase substrate/inhibitor assay; type: biochemical; conditions: mouse liver MTA phosphorylase; read-out: K1

{"COMPOUND": "Nc1ncnc2c1ncn2[C@@H]1O[C@H](CSCCF)[C@@H](O)[C@H]1O [MFETA]", "Ki": "3.1 µM"}
{"COMPOUND": "Nc1ncnc2c1ncn2[C@@H]1O[C@H](CSCCO)[C@@H](O)[C@H]1O [HETA, 5'-deoxy-5'-(hydroxyethylthio)adenosine]", "Ki": "26 µM"}

* * *

This listing pairs compounds with measured Substrate (% Control).
Biological target: Mouse Liver MTA Phosphorylase (Mus musculus)
Sequence (Q9CQ65 1-283): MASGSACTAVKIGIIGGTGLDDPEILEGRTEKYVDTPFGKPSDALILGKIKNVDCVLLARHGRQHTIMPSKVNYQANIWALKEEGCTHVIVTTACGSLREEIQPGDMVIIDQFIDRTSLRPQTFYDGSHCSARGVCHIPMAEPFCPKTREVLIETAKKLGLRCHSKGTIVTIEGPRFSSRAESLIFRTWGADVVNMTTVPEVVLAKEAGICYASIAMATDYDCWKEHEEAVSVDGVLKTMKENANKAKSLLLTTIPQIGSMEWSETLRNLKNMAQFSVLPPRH
Experiment: Mouse liver MTA phosphorylase substrate/inhibitor assay
Type: biochemical
Details: substrate activity relative to MTA
METRIC: Substrate (% Control)

{"COMPOUND": "CCSC[C@H]1O[C@@H](n2cnc3c(N)ncnc32)[C@H](O)[C@@H]1O [ETA, reference compound]", "METRIC": "Substrate (% Control)", "VAL": "95 % Control"}
{"COMPOUND": "Nc1ncnc2c1ncn2[C@@H]1O[C@H](CSCCCF)[C@@H](O)[C@H]1O [MFPTA, reference compound]", "METRIC": "Substrate (% Control)", "VAL": "66 % Control"}
{"COMPOUND": "Nc1ncnc2c1ncn2[C@@H]1O[C@H](CSCCCl)[C@@H](O)[C@H]1O", "METRIC": "Substrate (% Control)", "VAL": "35 % Control"}
{"COMPOUND": "Nc1ncnc2c1ncn2[C@@H]1O[C@H](CSCCO)[C@@H](O)[C@H]1O [HETA, 5'-deoxy-5'-(hydroxyethylthio)adenosine]", "METRIC": "Substrate (% Control)", "VAL": "34 % Control"}
{"COMPOUND": "CSC[C@H]1O[C@@H](n2cnc3c(N)ncnc32)[C@H](O)[C@@H]1O [MTA, 5'-deoxy-5'-methylthioadenosine, reference compound]", "METRIC": "Substrate (% Control)", "VAL": "100 % Control"}
{"COMPOUND": "Nc1ncnc2c1ncn2[C@@H]1O[C@H](CSCCF)[C@@H](O)[C@H]1O", "METRIC": "Substrate (% Control)", "VAL": "64 % Control"}
{"COMPOUND": "CCCSC[C@H]1O[C@@H](n2cnc3c(N)ncnc32)[C@H](O)[C@@H]1O [PTA, reference compound]", "METRIC": "Substrate (% Control)", "VAL": "102 % Control"}
{"COMPOUND": "Nc1ncnc2c1ncn2[C@@H]1O[C@H](CSCCBr)[C@@H](O)[C@H]1O", "METRIC": "Substrate (% Control)", "VAL": "38 % Control"}
